# target.under.test: α7 nAChR (Homo sapiens, UniProt P36544)
# Construct: expressed in transfected cells; host or cells: Xenopus oocytes (cRNA injection)
# Sequence (P36544 23-502): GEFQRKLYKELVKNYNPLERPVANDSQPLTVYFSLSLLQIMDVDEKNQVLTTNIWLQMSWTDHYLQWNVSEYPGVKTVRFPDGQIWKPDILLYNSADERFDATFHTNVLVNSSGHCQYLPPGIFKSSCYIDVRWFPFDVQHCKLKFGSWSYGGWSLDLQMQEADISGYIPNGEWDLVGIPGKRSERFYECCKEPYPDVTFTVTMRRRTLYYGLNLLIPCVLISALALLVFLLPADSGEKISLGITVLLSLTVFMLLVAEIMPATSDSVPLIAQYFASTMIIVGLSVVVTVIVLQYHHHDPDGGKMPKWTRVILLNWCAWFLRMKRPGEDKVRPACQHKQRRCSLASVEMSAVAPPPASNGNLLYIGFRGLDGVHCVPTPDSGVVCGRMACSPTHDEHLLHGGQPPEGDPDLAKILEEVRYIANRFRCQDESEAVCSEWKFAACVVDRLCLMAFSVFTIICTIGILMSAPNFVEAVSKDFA
# experimental.protocol: α7 nAChR positive allosteric modulator activity assay, voltage clamp in Xenopus oocytes with 100 μM ACh
# Assay type: cell-based
# assay.context: FIG. 3 concentration response curve, 100 μM ACh, n=6
pEC50: −log10 of the molar value.
metric: pEC50

- smiles.text: "Cc1nc(Cl)cc(Nc2nc3ncn(-c4c(C)cccc4Cl)c(=O)c3s2)n1"
  target.under.test: "α7 nAChR (Homo sapiens, UniProt P36544)"
  value.reported: 5.49

----------
# target.under.test: α7 nAChR (Rattus norvegicus, UniProt Q05941)
# Construct: from tissue; host or cells: rat brain (hippocampus) cell membranes
# Sequence (Q05941 23-502): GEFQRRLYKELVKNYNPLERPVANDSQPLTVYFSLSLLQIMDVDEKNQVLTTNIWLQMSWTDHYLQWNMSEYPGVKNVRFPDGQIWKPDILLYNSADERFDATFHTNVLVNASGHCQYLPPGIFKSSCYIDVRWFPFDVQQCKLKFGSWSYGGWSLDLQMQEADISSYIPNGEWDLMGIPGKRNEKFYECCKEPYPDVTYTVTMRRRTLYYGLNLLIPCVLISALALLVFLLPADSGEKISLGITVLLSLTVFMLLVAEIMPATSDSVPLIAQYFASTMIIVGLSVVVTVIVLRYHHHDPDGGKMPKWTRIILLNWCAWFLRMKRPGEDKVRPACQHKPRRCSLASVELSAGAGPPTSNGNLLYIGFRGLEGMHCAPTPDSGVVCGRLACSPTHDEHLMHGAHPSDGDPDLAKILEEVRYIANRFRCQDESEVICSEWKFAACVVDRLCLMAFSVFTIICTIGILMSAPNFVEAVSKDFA
# experimental.protocol: Radioisotope ligand binding assay, displacement of [3H]-Methyllycaconitine bound to rat brain cell membrane
# assay.context: displacement of [3H]-MLA, rat brain cell membrane, FIG. 1
pKi: −log10 of the molar value.

- molecule: "O=C(N[C@H]1CN2CCC1CC2)c1ccc(Cl)cc1 [PNU-282987, reference compound]"
  pKi: 7.47

----------
# target.under.test: α7 nAChR (Homo sapiens)
# Construct: expressed in transfected cells; host or cells: Xenopus oocytes (cRNA injection)
# experimental.protocol: α7 nAChR positive allosteric modulator activity assay, voltage clamp in Xenopus oocytes with 100 μM ACh
# Type: cell-based
# assay.context: potentiation of current induced by 100 μM ACh; Hill equation fit
pEC50: −log10 of the molar value.
Reported values of pEC50 for individual entries

- molecule: "Cc1ccc(Nc2nc3ncn(-c4c(C)cccc4Br)c(=O)c3s2)cc1F [JWX-A-C0106]"
  pEC50: 5.00
- molecule: "Cc1cccc(Cl)c1-n1cnc2nc(NC(=O)c3ccc(OC(F)(F)F)cc3)sc2c1=O [JWX-A-C1205]"
  pEC50: 4.97
- molecule: "Cc1cccc(Cl)c1-n1cnc2nc(Nc3ccc(Cl)cc3)sc2c1=O [JWX-A1104]"
  pEC50: 5.00
- molecule: "Cc1cccc(Cl)c1-n1cnc2nc(SCc3ccccc3F)sc2c1=O [LYH150309-2F]"
  pEC50: 5.38
- molecule: "Cc1cccc(Cl)c1-n1cnc2nc(SCc3cccc(F)c3)sc2c1=O [LYH150310-3F]"
  pEC50: 5.00
- molecule: "Cc1cccc(Cl)c1-n1cnc2nc(Nc3ccc(F)c(Cl)c3)sc2c1=O [JWX-A-C0104]"
  pEC50: 5.00
- molecule: "Cc1ccc(CSc2nc3ncn(-c4c(C)cccc4Cl)c(=O)c3s2)cc1 [LYH150318-4Me]"
  pEC50: 5.00
- molecule: "COc1ccc(C(=O)Nc2nc3ncn(-c4c(C)cccc4Cl)c(=O)c3s2)cc1 [JWX-A0312]"
  pEC50: 5.00
- molecule: "Cc1ccc(Nc2nc3ncn(-c4c(C)cccc4Cl)c(=O)c3s2)cc1F [JWX-A0108]"
  pEC50: 5.47

----------
# target.under.test: α7 nAChR (Homo sapiens, UniProt P36544)
# Construct: expressed in transfected cells; host or cells: Xenopus oocytes (cRNA injection)
# experimental.protocol: α7 nAChR positive allosteric modulator activity assay, voltage clamp in Xenopus oocytes with 100 μM ACh
# Format: cell-based
# assay.context: potentiation of current induced by 100 μM ACh; Hill equation fit
pEC50: −log10 of the molar value.
Items are presented alongside their recorded pEC50.

- smiles.text: "Cc1cccc(Cl)c1-n1cnc2nc(Sc3ccccc3)sc2c1=O"
  pEC50: 5.00
- smiles.text: "Cc1cccc(Cl)c1-n1cnc2nc(Nc3cccc(F)c3)sc2c1=O"
  pEC50: 5.12
- smiles.text: "Cc1ccc(Nc2nc3ncn(-c4ccccc4C)c(=O)c3s2)cc1F"
  pEC50: 5.00
- smiles.text: "Cc1cccc(Cl)c1-n1cnc2nc(NC(=O)c3ccc(Cl)cc3)sc2c1=O"
  pEC50: 5.00
- smiles.text: "Cc1cccc(Cl)c1-n1cnc2nc(Nc3ccc(Br)cc3)sc2c1=O"
  pEC50: 5.00
- smiles.text: "Cc1cccc(Cl)c1-n1cnc2nc(Nc3cccc(Cl)c3)sc2c1=O"
  pEC50: 5.00
- smiles.text: "Cc1cccc(Cl)c1-n1cnc2nc(NC(=O)c3ccccc3)sc2c1=O"
  pEC50: 5.00
- smiles.text: "Cc1cccc(Cl)c1-n1cnc2nc(SCc3ccc(F)cc3)sc2c1=O"
  pEC50: 5.54
- smiles.text: "Cc1cccc(Cl)c1-n1cnc2nc(NC(=O)c3ccc(C(F)(F)F)cc3)sc2c1=O"
  pEC50: 5.00
- smiles.text: "Cc1cccc(Cl)c1-n1cnc2nc(Nc3cccc(Br)c3)sc2c1=O"
  pEC50: 5.00
- smiles.text: "Cc1cccc(Cl)c1-n1cnc2nc(Nc3ccc(F)c(F)c3)sc2c1=O"
  pEC50: 5.00
- smiles.text: "Cc1cccc(Nc2nc3ncn(-c4c(C)cccc4Cl)c(=O)c3s2)c1"
  pEC50: 5.08
- smiles.text: "COc1cccc(Nc2nc3ncn(-c4c(C)cccc4Cl)c(=O)c3s2)c1"
  pEC50: 5.00
- smiles.text: "Cc1ccc(Nc2nc3ncn(-c4c(C)cccc4Cl)c(=O)c3s2)cc1C"
  pEC50: 5.16
- smiles.text: "Cc1cccc(Cl)c1-n1cnc2nc(SCc3ccccc3)sc2c1=O"
  pEC50: 5.90
- smiles.text: "Cc1cccc(Cl)c1-n1cnc2nc(Sc3ccc(F)cc3)sc2c1=O"
  pEC50: 5.00
- smiles.text: "Cc1ccc(Nc2nc3ncn(-c4ccccc4Cl)c(=O)c3s2)cc1F"
  pEC50: 5.00
- smiles.text: "Cc1cccc(Cl)c1-n1cnc2nc(SCc3ccc(C(F)(F)F)cc3)sc2c1=O"
  pEC50: 5.00
- smiles.text: "Cc1cccc(Cl)c1-n1cnc2nc(N(C)c3ccccc3)sc2c1=O"
  pEC50: 5.00
- smiles.text: "Cc1cccc(Cl)c1-n1cnc2nc(Nc3ccccc3F)sc2c1=O"
  pEC50: 5.00
- smiles.text: "COc1ccc(CSc2nc3ncn(-c4c(C)cccc4Cl)c(=O)c3s2)cc1"
  pEC50: 5.00

src = patent US10450326B2
